These measurements were taken from PubChem BioAssay AID270.

Test system: BDF1 mice, s.c. Lewis lung carcinoma, T/C %
Assay: NCI In Vivo Anticancer Drug Screen. Data for tumor model Lewis Lung Carcinoma (subcutaneous) in B6D2F1 (BDF1) mice
Conditions: endpoint: median survival time; dose: 6.25 mg/kg/injection; schedule: Q01DX009 (ip); vehicle: Klucel (hydroxypropylcellulose) (HPC); higher = longer survival
Results filed as inconclusive are left out.
Recorded measurements of T/C, one per entry

compound	T/C
O=[N+]([O-])c1ccc(/C=N/c2ncc(Br)s2)o1	89 % of control
COC12C(COC(=O)NCCO)C3=C(C(=O)C(C)=C(N)C3=O)N1CC1NC12 (centres undefined)	92 % of control
CCC(c1ccc(OC(=O)Cc2ccc(N(CCCl)CCCl)cc2)cc1)C(CC)c1ccc(OC(=O)Cc2ccc(N(CCCl)CCCl)cc2)cc1 (centres undefined)	102 % of control
CCOC(=O)C1C(=O)C(CN(CCCl)CCCl)C(=O)C(C(=O)OCC)C1c1ccc(O)cc1 (centres undefined)	98 % of control

* * *

Tested on: BDF1 mice, s.c. Lewis lung carcinoma, T/C %
Test: NCI In Vivo Anticancer Drug Screen. Data for tumor model Lewis Lung Carcinoma (subcutaneous) in B6D2F1 (BDF1) mice
Conditions: endpoint: median survival time; dose: 2.5 mg/kg/injection; schedule: Q01DX009 (ip); vehicle: saline; higher = longer survival
Records with an inconclusive call do not appear.
Recorded measurements of T/C, one per entry

compound	studySystem	T/C
CC[n+]1ccc(Nc2ccc(/C=C/c3ccc4cc(Nc5cc[n+](CC)cc5)ccc4[n+]3CC)cc2)cc1	BDF1 mice, s.c. Lewis lung carcinoma, T/C %	95 % of control
C1CC[N-]CC1.C1CC[N-]CC1.C1CC[N-]CC1.C1CC[N-]CC1.[Cl][Co][Cl]	BDF1 mice, s.c. Lewis lung carcinoma, T/C %	94 % of control
Oc1ccc(Nc2ccnc3cc(Cl)ccc23)cc1CN(CCCl)CCCl	BDF1 mice, s.c. Lewis lung carcinoma, T/C %	108 % of control
NC(=NCc1ccccc1)c1ccc(N=C(N)c2ccc(C(N)=Nc3ccc(C(N)=NCc4ccccc4)cc3)cc2)cc1	BDF1 mice, s.c. Lewis lung carcinoma, T/C %	113 % of control
O=CC(NC(=O)N(CCCl)N=O)C(O)C(O)C(O)CO (stereo unspecified)	BDF1 mice, s.c. Lewis lung carcinoma, T/C %	112 % of control
O=c1[nH]c(=O)n(C2CC(O)C(CO)O2)cc1C(F)(F)F (stereo unspecified)	BDF1 mice, s.c. Lewis lung carcinoma, T/C %	119 % of control
CCCNC1=C(N2CC2)C(=O)C(NCCC)=C(N2CC2)C1=O	BDF1 mice, s.c. Lewis lung carcinoma, T/C %	102 % of control
O=NN(CCF)C(=O)NC1CCSCC1	BDF1 mice, s.c. Lewis lung carcinoma, T/C %	103 % of control
COC1C(O)=C2C(=O)OC(C)(O)/C=C/C=C\C=C/C=C/C(c3ccccc3)NC(=O)/C=C/C=C/C=C/C=C/C2(C)C1O (stereo unspecified)	BDF1 mice, s.c. Lewis lung carcinoma, T/C %	91 % of control
CC1(C)OCC(CO)(Nc2nc(N3CC3)nc(N3CC3)n2)CO1	BDF1 mice, s.c. Lewis lung carcinoma, T/C %	112 % of control
CC1CCC2(OC1)OC1C(O)C3C4CCC5CC(OC6OC(CO)C(OC7OC(CO)C(O)C(OC8OCC(O)C(O)C8O)C7OC7OC(CO)C(O)C(OC8OC(CO)C(O)C(O)C8O)C7O)C(O)C6O)C(O)CC5(C)C4CCC3(C)C1C2C (stereo unspecified)	BDF1 mice, s.c. Lewis lung carcinoma, T/C %	122 % of control

* * *

Test system: BDF1 mice, s.c. Lewis lung carcinoma, T/C %
Assay: NCI In Vivo Anticancer Drug Screen. Data for tumor model Lewis Lung Carcinoma (subcutaneous) in B6D2F1 (BDF1) mice
Conditions: endpoint: mean tumor weight; dose: 50.0 mg/kg/injection; schedule: Q01DX011 (ip); vehicle: saline; higher = larger tumour
Inconclusive results are not listed.
measureName: T/C

compound	studySystem	measureName	result
CCCCCC[C@@H](O)C/C=C\CCCCCCCC(=O)O	BDF1 mice, s.c. Lewis lung carcinoma, T/C %	T/C	77 % of control
C=C1CC/C=C(\C)CCC2C1CC2(C)C (configuration not stated)	BDF1 mice, s.c. Lewis lung carcinoma, T/C %	T/C	88 % of control
CC[C@H](c1ccc(O)cc1)[C@@H](CC)c1ccc(O)cc1	BDF1 mice, s.c. Lewis lung carcinoma, T/C %	T/C	47 % of control
O=P1(NCCCl)OCCCN1CCCl (configuration not stated)	BDF1 mice, s.c. Lewis lung carcinoma, T/C %	T/C	2 % of control
O=c1c(O)c(-c2ccc(O)c(O)c2)oc2cc(O)ccc12	BDF1 mice, s.c. Lewis lung carcinoma, T/C %	T/C	91 % of control
COc1cc(OC)c(-c2cc(=O)c3c(OC)c(OC)c(OC)c(OC)c3o2)cc1OC	BDF1 mice, s.c. Lewis lung carcinoma, T/C %	T/C	73 % of control
O=c1c(O)c(-c2ccc(O)c(O)c2)oc2cc(O)cc(O)c12	BDF1 mice, s.c. Lewis lung carcinoma, T/C %	T/C	61 % of control
C=C[C@@]1(C)C=C2CC[C@@H]3[C@](C)(CCC[C@@]3(C)C(=O)O)[C@H]2CC1	BDF1 mice, s.c. Lewis lung carcinoma, T/C %	T/C	88 % of control
CC1CCCCN1 (configuration not stated)	BDF1 mice, s.c. Lewis lung carcinoma, T/C %	T/C	80 % of control
O=C(O)CC(O)(CC(=O)O)C(=O)O.[Ga]	BDF1 mice, s.c. Lewis lung carcinoma, T/C %	T/C	34 % of control
Nc1ccc(Cl)c(N)c1	BDF1 mice, s.c. Lewis lung carcinoma, T/C %	T/C	105 % of control
O=C(/C=C/c1ccc(O)c(O)c1)c1ccc(O)c(O)c1O	BDF1 mice, s.c. Lewis lung carcinoma, T/C %	T/C	64 % of control

* * *

System: BDF1 mice, s.c. Lewis lung carcinoma, T/C %
Test: NCI In Vivo Anticancer Drug Screen. Data for tumor model Lewis Lung Carcinoma (subcutaneous) in B6D2F1 (BDF1) mice
Settings: endpoint: median survival time; dose: 20.0 mg/kg/injection; schedule: Q01DX009 (ip); vehicle: saline with Tween-80
Inconclusive results are not listed. Rule for the calls: active = survival T/C of 150% or more; inactive = T/C below 125% in these data.
Outcome codes: True = active, False = inactive

smilesText	classLabel
CC1(C)CCC(NC(=O)N(CCF)N=O)CC1	True
COc1cccc(/C=C/[N+](=O)[O-])c1	False
O=C(CCBr)N1CCN(C(=O)CCBr)CC1	False
ClCC[N-]CC[N-]CCCl.ClCC[N-]CC[N-]CCCl.[O-][Cl+3]([O-])([O-])O.[Zn+2]	False
CS(=O)(=O)OCCCCOS(C)(=O)=O	False

* * *

Recorded measurements of T/C, one per entry
Test system: BDF1 mice, s.c. Lewis lung carcinoma, T/C %
Assay: NCI In Vivo Anticancer Drug Screen. Data for tumor model Lewis Lung Carcinoma (subcutaneous) in B6D2F1 (BDF1) mice
Conditions: endpoint: mean tumor weight; dose: 125.0 mg/kg/injection; schedule: Q01DX011 (ip); vehicle: saline; higher = larger tumour
Results filed as inconclusive are left out.

compound	T/C
CN1CC(=O)N=C1N	119 % of control
CC1OC(OCC2OC(Oc3c(-c4ccc(O)c(O)c4)oc4cc(O)cc(O)c4c3=O)C(O)C(O)C2O)C(O)C(O)C1O (centres undefined)	93 % of control
CC1OC(Oc2c(-c3ccc(O)c(O)c3)oc3cc(O)cc(O)c3c2=O)C(O)C(O)C1O (centres undefined)	93 % of control
CCOC(N)=O	123 % of control
O=C(O)C1(NO)CCCC1	27 % of control
O=c1[nH]cnc2nc[nH]c12	108 % of control
c1ccc2nc3ccccc3c-2cc1	90 % of control
C=C[C@]1(C)C=C2CC[C@@H]3[C@](C)(CCC[C@@]3(C)C(=O)O)[C@H]2CC1	102 % of control
CS(=O)(=O)OCC(O)C(O)COS(C)(=O)=O (centres undefined)	87 % of control
CCC(c1ccc(O)cc1)C(CC)c1ccc(OC)cc1 (centres undefined)	16 % of control
NC(=O)NC1NC(=O)NC1=O (centres undefined)	106 % of control
Nc1ccc(OC(=O)Oc2ccc(N)cc2)cc1	49 % of control
OCCc1ccccc1	107 % of control
CCN(CC)C(=S)S	86 % of control

* * *

Test system: BDF1 mice, s.c. Lewis lung carcinoma, T/C %
Assay: NCI In Vivo Anticancer Drug Screen. Data for tumor model Lewis Lung Carcinoma (subcutaneous) in B6D2F1 (BDF1) mice
Conditions: endpoint: median survival time; dose: 6.25 mg/kg/injection; schedule: Q01DX009 (ip); vehicle: Klucel (hydroxypropylcellulose) (HPC); higher = longer survival
Description: The antitumor activity of compounds was measured in mice bearing transplantable tumors. Survival or tumor size were measured and the results are expressed as the measurement made in the treated group (T) divided by the measurement made in the vehicle treated control group (C). The tumor model used in this assay is Lewis Lung Carcinoma (subcutaneous) in B6D2F1 (BDF1) mice
Results filed as inconclusive are left out.
Recorded measurements of T/C, one per entry
measureName: T/C

compound	measureName	result
CC(C)=CCC/C(C)=C/CNCCc1c[nH]c2ccccc12	T/C	100 % of control
C=C1C(=O)OC2C1CCC(C)C1CCC(=O)OC12C (stereo unspecified)	T/C	102 % of control
C=C1C(=O)OC2C3OC(C)(CCC(O)C3COC(C)=O)CC(OC(=O)/C(=C/C)COC(C)=O)C12 (stereo unspecified)	T/C	101 % of control
O=NN(CCCl)C(=O)Nc1cc2c3ccccc3ccc2c2ccccc12	T/C	100 % of control
CC[CH2][Pb]([CH2]CC)([CH2]CC)[N]1C(=O)c2ccccc2C1=O	T/C	87 % of control
O=[N+]([O-])c1ccc(Cl)c2c([N+](=O)[O-])cccc12	T/C	118 % of control
CN(C)C=Nc1ccc2c3c(cccc13)CC2	T/C	108 % of control
O=C1N(Br)C(=O)C(c2ccc(Cl)cc2)(c2ccc(Cl)cc2)N1Br	T/C	97 % of control
CSc1ccc(NC(=O)N(CCCl)N=O)cc1	T/C	115 % of control
Cc1cnc(/C=N\NC(N)=S)c2cccc(N)c12	T/C	112 % of control
CC(=O)[O][Hg][c]1c(C)c(C)c(C)c(C)c1C	T/C	92 % of control
